- assay-target: human Nav1.7 (Homo sapiens (Human), UniProt Q15858)
- Sequence (Q15858 other isoform, or with tags, fused parts or gaps): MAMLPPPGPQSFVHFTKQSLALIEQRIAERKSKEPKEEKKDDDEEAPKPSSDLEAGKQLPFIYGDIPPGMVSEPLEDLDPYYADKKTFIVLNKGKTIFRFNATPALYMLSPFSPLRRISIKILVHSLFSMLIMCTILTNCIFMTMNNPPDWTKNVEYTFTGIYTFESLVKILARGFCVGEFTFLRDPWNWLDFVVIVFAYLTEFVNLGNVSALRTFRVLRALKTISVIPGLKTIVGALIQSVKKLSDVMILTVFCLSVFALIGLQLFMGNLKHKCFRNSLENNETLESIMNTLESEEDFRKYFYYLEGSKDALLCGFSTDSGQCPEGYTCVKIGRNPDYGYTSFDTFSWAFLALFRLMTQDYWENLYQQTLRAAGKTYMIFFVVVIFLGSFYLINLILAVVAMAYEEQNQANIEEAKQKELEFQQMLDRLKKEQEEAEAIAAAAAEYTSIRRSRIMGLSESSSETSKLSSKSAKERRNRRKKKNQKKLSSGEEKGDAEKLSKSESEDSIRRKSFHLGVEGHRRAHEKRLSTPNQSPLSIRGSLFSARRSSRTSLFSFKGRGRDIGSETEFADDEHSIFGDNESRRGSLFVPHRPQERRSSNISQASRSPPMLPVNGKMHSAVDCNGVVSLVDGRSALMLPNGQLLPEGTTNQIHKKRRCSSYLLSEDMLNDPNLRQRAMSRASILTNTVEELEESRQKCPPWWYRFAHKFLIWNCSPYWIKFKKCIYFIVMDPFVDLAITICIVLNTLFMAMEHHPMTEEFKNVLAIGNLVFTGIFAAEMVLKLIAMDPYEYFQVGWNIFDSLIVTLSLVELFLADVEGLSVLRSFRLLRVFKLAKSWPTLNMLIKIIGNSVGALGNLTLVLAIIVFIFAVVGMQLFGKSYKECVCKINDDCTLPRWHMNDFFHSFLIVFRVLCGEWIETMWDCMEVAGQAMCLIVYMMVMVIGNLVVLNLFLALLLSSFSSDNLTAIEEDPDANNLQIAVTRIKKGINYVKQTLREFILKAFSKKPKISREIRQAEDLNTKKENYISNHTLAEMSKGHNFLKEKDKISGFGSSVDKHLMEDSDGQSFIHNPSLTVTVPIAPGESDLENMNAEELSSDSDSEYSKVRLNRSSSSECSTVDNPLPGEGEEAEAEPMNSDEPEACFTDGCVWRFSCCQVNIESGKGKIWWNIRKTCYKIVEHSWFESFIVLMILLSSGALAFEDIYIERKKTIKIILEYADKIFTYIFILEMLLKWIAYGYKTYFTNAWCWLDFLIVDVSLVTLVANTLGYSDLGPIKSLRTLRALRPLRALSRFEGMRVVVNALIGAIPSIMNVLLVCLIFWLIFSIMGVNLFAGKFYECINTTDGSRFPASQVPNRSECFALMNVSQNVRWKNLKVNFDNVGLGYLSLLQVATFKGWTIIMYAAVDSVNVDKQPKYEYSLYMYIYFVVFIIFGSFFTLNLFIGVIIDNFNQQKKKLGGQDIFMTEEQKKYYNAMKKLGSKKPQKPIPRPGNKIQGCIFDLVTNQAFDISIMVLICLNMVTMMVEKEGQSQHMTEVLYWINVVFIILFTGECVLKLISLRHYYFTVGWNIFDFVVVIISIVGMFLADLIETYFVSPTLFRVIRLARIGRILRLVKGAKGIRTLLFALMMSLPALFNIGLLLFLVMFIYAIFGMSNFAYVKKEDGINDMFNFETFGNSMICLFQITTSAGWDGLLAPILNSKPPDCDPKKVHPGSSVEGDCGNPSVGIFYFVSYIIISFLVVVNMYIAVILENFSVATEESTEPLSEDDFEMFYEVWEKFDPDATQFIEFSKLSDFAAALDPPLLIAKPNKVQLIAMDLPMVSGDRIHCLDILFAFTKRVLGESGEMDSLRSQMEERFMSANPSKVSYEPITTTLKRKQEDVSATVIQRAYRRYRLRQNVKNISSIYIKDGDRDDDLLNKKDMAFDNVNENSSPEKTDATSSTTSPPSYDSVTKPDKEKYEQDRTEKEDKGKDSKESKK
- assay-info: FLIPR or FLIPR TETRA sodium dye assay for sodium channel blocking activity
- Type: cell-based
- test-parameters: recombinant HEK293 cells expressing human Nav1.7
measure: log10 of IC50 (log10 of the value in µM)

| compound | log10 of IC50 |
| --- | --- |
| NC(=O)c1cccc(-c2ccc3c(ccn3CC3CCCCC3)c2)n1 [Compound 58] | -0.63 |
| O=C(Nc1ccc(C(F)(F)F)cc1)c1cccc(-c2ccc3[nH]ncc3c2)n1 [Compound 77] | 0.43 |
| NC(=O)c1cc(-c2ccc3c(ccn3Cc3ccc(C(F)(F)F)cc3)c2)cc([C@H](O)CO)n1 [Compound 123] | 0.18 |
| Nc1cc(C(=O)Nc2ccc(C(F)(F)F)cc2)nc(-c2ccc3occc3c2)n1 [Compound 138] | 0.56 |
| C[C@H](Nc1cc(C(N)=O)nc(-c2ccc3c(ccn3Cc3ccc(C(F)(F)F)cc3)c2)n1)C(N)=O [Compound 112] | 0.61 |
| CC(C)Cn1ccc2cc(-c3cc(C(N)=O)nc([C@H](O)CO)c3)ccc21 [Compound 126] | 0.77 |
| CC(C)Cn1ccc2cc(-c3nc(N[C@@H](C)C(N)=O)cc(C(N)=O)n3)ccc21 [Compound 47] | 0.62 |
| O=C(Nc1ccc(C(F)(F)F)cc1)c1cc(N[C@H]2CCNC2=O)nc(-c2ccc3[nH]ccc3c2)n1 [Compound 78] | 0.26 |
| NC(=O)c1cc(N[C@H]2CCNC2=O)nc(-c2ccc3ncn(-c4ccc(C(F)(F)F)cc4)c3c2)n1 [Compound 44] | 0.24 |
| NC(=O)[C@H](O)[C@@H](O)c1cccc(-c2ccc3c(ccn3Cc3ccc(C(F)(F)F)cc3)c2)n1 [Compound 151] | -0.11 |
| C[C@H](Nc1cc(C(N)=O)nc(-c2ccc3c(ccn3CC3CCCCC3)c2)n1)C(N)=O [Compound 113] | 0.65 |
| NC(=O)c1cc([C@H](O)CO)cc(-c2ccc3c(ccn3Cc3ccc(C(F)(F)F)cc3)c2)n1 [Compound 121] | 0.37 |
| OC[C@@H](O)c1cccc(-c2ccc3c(c2)ncn3Cc2ccc(C(F)(F)F)cc2)n1 [Compound 110] | 0.54 |
| O=C(Nc1ccc(C(F)(F)F)cc1)c1cccc(-c2ccc3occc3c2)n1 [Compound 81] | -0.11 |
| NC(=O)c1cc(N[C@H]2CCNC2=O)nc(-c2ccc3c(c2)ncn3-c2ccc(C(F)(F)F)cc2)n1 [Compound 45] | 0.86 |
| NC(=O)c1csc(-c2ccc3c(ccn3Cc3ccc(C(F)(F)F)cc3)c2)n1 [Compound 156] | -0.76 |
| OC[C@@H](O)c1cccc(-c2ccc3c(cnn3Cc3ccc(C(F)(F)F)cc3)c2)n1 [Compound 107] | 0.04 |
